// data source = patent US11261174B2

molecular target: UniProtKB Q92633; assay: LPA1 functional antagonist assay (LPA-induced calcium flux); details: CHO cells overexpressing human LPA1; calcium flux induced by 10 nM LPA; read-out: hLPA1 IC50
READOUT TYPE: IC50 (nM)

(a) Cc1nc(-c2cnn(C)c2COC(=O)N(C)CC2CC2)ccc1O[C@H]1CCC[C@H](C(=O)O)C1
(b) Cc1nc(-c2cnn(C)c2COC(=O)N(C)Cc2ccccc2)ccc1O[C@H]1CCC[C@H](C(=O)O)C1
(c) Cc1nc(-c2cnn(C)c2COC(=O)N(C)C2(C3CC3)CC2)ccc1O[C@H]1CCC[C@H](C(=O)O)C1
Give the ascending ranking of the items by reported IC50. Output spec: labels arranged per the requested ranking. b, a, c

(1) Cc1cc(-c2cnn(C)c2COC(=O)N(C)C(C)C2CC2)ccc1O[C@H]1CCC[C@H](C(=O)O)C1 (stereo partly shown)
(2) CC(C1CC1)N(C)C(=O)OCc1c(-c2ccc(O[C@H]3CCC[C@H](C(=O)O)C3)cn2)cnn1C (stereo partly shown)
Smaller IC50 value, 1 vs 2 ? Reply with the label of the item you choose. 1
(1: 27 nM, 2: 134 nM)

(a) Cc1nc(-c2cnn(C)c2COC(=O)N(C)CC(C)C)ncc1O[C@H]1CCC[C@H](C(=O)O)C1
(b) CN(CC1CC1)C(=O)OCc1c(-c2ccc(O[C@H]3CCC[C@H](C(=O)O)C3)cc2)cnn1C
Record comparison, field IC50: mark the lower of a and b . Reply briefly: the label of your chosen item. a

----------
molecular target: LPA1 (Homo sapiens); test: LPA1 functional antagonist assay (LPA-induced calcium flux); conditions: CHO cells overexpressing human LPA1; calcium flux induced by 10 nM LPA; read-out: hLPA1 IC50
READOUT TYPE: IC50 (nM)

Past entries and their recorded results:
> print(dat)
                                   molecule  readout.type  observed.value
1  Cc1nc(-c2cnn(C)c2COC(=O)N(C)C(C2CC2)C2CC2)ccc1O[C@H]1CCC[C@H](C(=O)O)C1 [Example 23]          IC50              28
2  CCCC(C)(C)N(C)C(=O)OCc1c(-c2ccc(O[C@@H]3CCC[C@@H](C(=O)O)C3)c(C)n2)cnn1C (racemic) [Example 28]          IC50             140
3  Cc1nc(-c2cnn(C)c2COC(=O)N(C)C[C@@H]2C[C@H]2C)ncc1O[C@H]1CCC[C@H](C(=O)O)C1 [Example 91]          IC50              32
4  CN(CCC1CC1)C(=O)OCc1c(-c2ccc(O[C@H]3CCC[C@H](C(=O)O)C3)cc2)cnn1C [Example 63]          IC50              46
5  CC(C)CCN(C)C(=O)OCc1c(-c2ccc(O[C@H]3CCC[C@H](C(=O)O)C3)cn2)cnn1C [Example 33]          IC50              23

(I) CCc1nc(-c2cnn(C)c2COC(=O)N(C)Cc2ccccc2)ncc1O[C@H]1CCC[C@H](C(=O)O)C1 [Example 82]
(II) CC(C)CCN(C)C(=O)OCc1c(-c2ccc(O[C@H]3CCC[C@H](C(=O)O)C3)cc2)cnn1C [Example 38]
(III) CC(C)CN(C)C(=O)OCc1c(-c2ccc(O[C@H]3CCC[C@H](C(=O)O)C3)cc2)cnn1C [Example 49]
(IV) CC(C)CCN(C)C(=O)OCc1c(-c2ccc(O[C@@H]3CCC[C@@H](C(=O)O)C3)cc2)cnn1C [Example 37]
List items by IC50 in falling order. Thanks in advance for listing the labels in the requested order. IV, III, I, II
(IV: 2040 nM, III: 286 nM, I: 79 nM, II: 6 nM)

----------
target: LPA1 (Homo sapiens, UniProt Q92633); test: LPA1 functional antagonist assay (LPA-induced calcium flux); conditions: CHO cells overexpressing human LPA1; calcium flux induced by 10 nM LPA; read-out: hLPA1 IC50
Sequence (Q92633 whole entry): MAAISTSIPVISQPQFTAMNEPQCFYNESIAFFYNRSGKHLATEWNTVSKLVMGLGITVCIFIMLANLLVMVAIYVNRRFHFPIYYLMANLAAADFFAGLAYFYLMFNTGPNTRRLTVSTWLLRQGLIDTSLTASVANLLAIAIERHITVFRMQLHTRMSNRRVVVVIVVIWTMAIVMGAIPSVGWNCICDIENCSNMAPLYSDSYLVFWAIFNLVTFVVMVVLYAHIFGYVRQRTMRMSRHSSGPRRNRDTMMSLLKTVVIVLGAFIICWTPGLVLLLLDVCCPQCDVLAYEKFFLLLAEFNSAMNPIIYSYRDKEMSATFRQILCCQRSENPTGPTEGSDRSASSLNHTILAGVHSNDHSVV
READOUT TYPE: IC50 (nM)

These recorded examples may help you get a feel for the data.
> print(dat)
                                   compound  readout.type  unit.info  observed.value
1  CCCC(C)(C)N(C)C(=O)OCc1c(-c2ccc(O[C@@H]3CCC[C@@H](C(=O)O)C3)cn2)cnn1C (racemic) [Example 31]          IC50         nM              51
2  Cc1nc(-c2cnn(C)c2COC(=O)N(C)Cc2cccc(Cl)c2)ccc1O[C@H]1CCC[C@H](C(=O)O)C1 [Example 14]          IC50         nM            1120
3  Cc1nc(-c2cnn(C)c2COC(=O)N(C)[C@H](C)C2CC2)cnc1O[C@H]1CCC[C@H](C(=O)O)C1 [Example 6]          IC50         nM              94
4  Cc1nc(-c2cnn(C)c2COC(=O)N(C)CC23CC(C2)C3)ncc1O[C@H]1CCC[C@H](C(=O)O)C1 [Example 77]          IC50         nM             125
5  Cc1nc(-c2cnn(C)c2COC(=O)N(C)C2CCCC2)cnc1O[C@H]1CCC[C@H](C(=O)O)C1 [Example 9]          IC50         nM              34

(1) CN(C(=O)OCc1c(-c2ccc(O[C@H]3CCC[C@H](C(=O)O)C3)cc2)cnn1C)C1CCC1 [Example 50]
(2) CN(C(=O)OCc1c(-c2ccc(O[C@H]3CCC[C@H](C(=O)O)C3)cn2)cnn1C)C1CCCC1 [Example 62]
(3) CN(Cc1ccccc1)C(=O)OCc1c(-c2ccc(O[C@@H]3CCC[C@@H](C(=O)O)C3)cc2)cnn1C [Example 36]
(4) Cc1nc(-c2cnn(C)c2COC(=O)N(C)C[C@H]2C[C@@H]2C)ncc1O[C@H]1CCC[C@H](C(=O)O)C1 [Example 92]
Kindly order the items shown according to IC50, from the highest value down. Output the labels ranked as instructed. 3, 1, 4, 2

(I) Cc1nc(-c2cnn(C)c2COC(=O)N(C)CCC2CC2(F)F)ncc1O[C@H]1CCC[C@H](C(=O)O)C1 (stereo partly drawn) [Example 78]
(II) Cc1nc(-c2cnn(C)c2COC(=O)N(C)CCCCCF)ncc1O[C@H]1CCC[C@H](C(=O)O)C1 [Example 73]
Pick the one with the larger IC50: I vs II State the label of the item chosen. I

(A) Cc1nc(-c2cnn(C)c2COC(=O)N2CC(C)(C)C2)ccc1O[C@H]1CCC[C@H](C(=O)O)C1 [Example 90]
(B) CCCCN(C)C(=O)OCc1c(-c2ncc(O[C@H]3CCC[C@H](C(=O)O)C3)c(CC)n2)cnn1C [Example 87]
Look at A and B . Which one has the lower recorded IC50 number? Mark your answer with the label of the selected entry. B

----------
target: LPA1 (Homo sapiens, UniProt Q92633); test: LPA1 functional antagonist assay (LPA-induced calcium flux); settings: CHO cells overexpressing human LPA1; calcium flux induced by 10 nM LPA; read-out: hLPA1 IC50
READOUT TYPE: IC50 (µM)

(a) Cc1nc(-c2cnn(C)c2COC(=O)NC2CCCCC2)ncc1O[C@H]1CCC[C@H](C(=O)O)C1
(b) Cc1cc(-c2cnn(C)c2COC(=O)N(C)C2CCC2)ccc1O[C@H]1CCC[C@H](C(=O)O)C1
(c) CCc1nc(-c2cnn(C)c2COC(=O)N(C)CC2CCC2)ncc1O[C@H]1CCC[C@H](C(=O)O)C1
(d) CCCN(C)C(=O)OCc1c(-c2ncc(O[C@H]3CCC[C@H](C(=O)O)C3)c(C)n2)cnn1C
Sort the listed entries by IC50, smallest first. The labels, placed in the requested order, form the answer. c, b, d, a

----------
target: LPA1 (Homo sapiens, UniProt Q92633); test: LPA1 functional antagonist assay (LPA-induced calcium flux); settings: CHO cells overexpressing human LPA1; calcium flux induced by 10 nM LPA; read-out: hLPA1 IC50
READOUT TYPE: IC50 (µM)

Check out these entries, answers already filled in.
> print(dat)
                                   molecule                       assayed.target  unit.info  observed.value
1  CCc1nc(-c2cnn(C)c2COC(=O)N(C)C2CCCC2)ncc1O[C@H]1CCC[C@H](C(=O)O)C1 [Example 83]  LPA1 (Homo sapiens, UniProt Q92633)         µM            0.06
2  Cc1nc(-c2cnn(C)c2COC(=O)N(C)CC2CCCC2)ccc1O[C@H]1CCC[C@H](C(=O)O)C1 [Example 13]  LPA1 (Homo sapiens, UniProt Q92633)         µM           0.244
3  CCCCN(C)C(=O)OCc1c(-c2ncc(O[C@H]3CCC[C@H](C(=O)O)C3)c(C)n2)cnn1C [Example 67]  LPA1 (Homo sapiens, UniProt Q92633)         µM           0.059

(A) CC[C@H](C)CN(C)C(=O)OCc1c(-c2ccc(O[C@H]3CCC[C@H](C(=O)O)C3)c(C)n2)cnn1C [Example 11]
(B) CN(CC1CC1)C(=O)OCc1c(-c2ccc(O[C@@H]3CCC[C@@H](C(=O)O)C3)cc2)cnn1C (racemic) [Example 41]
(C) CN(C(=O)OCc1c(-c2cnc(O[C@H]3CCC[C@H](C(=O)O)C3)cn2)cnn1C)C1CCCC1 [Example 56]
(D) CC(C)CCN(C)C(=O)OCc1c(-c2ccc(O[C@@H]3CCC[C@@H](C(=O)O)C3)cn2)cnn1C (racemic) [Example 34]
List from greatest to least IC50. // list labels; follow requested order B, A, D, C
(B: 1.76 µM, A: 0.073 µM, D: 0.033 µM, C: 0.018 µM)
